Experiment: in vivo
Design: species or system CD1 mice
Conditions: CD1, mouse, in vivo, po, 10 mg/kg, PO 10 mg/kg, CD1 mice, 2 hr; read-out: Brain concentration, mean
Experimental: The pharmacokinetic profile of compounds of the disclosure are determined in CD1 mice by administering IV and PO doses of the compounds of the disclosure to the CD1 mice. Plasma samples are drawn at 0.083, 0.25, 0.5, 1.0, 2.0, 4.0, 8.0, and 24 hours to determine the plasma concentration of the compounds of the disclosure. Brain and CSF samples were collected at 0.25 hours, 2 hours, and 8 hours post dosing. […]
Metric: concentration at 2 h

In: Value lookup for concentration at 2 h; key = "C=C(C)[C@@H]1CCC(C)=C[C@H]1c1c(O)cc(CC2CN(C(C)=O)C2)cc1O"
Out: 126 ng/mL

----------
Assay: in vivo
Parameters: species or system CD1 mice
Conditions: CD1, mouse, in vivo, po, 10 mg/kg, PO 10 mg/kg, CD1 mice, 0.25 hr; read-out: CSF concentration, mean
Metric: concentration at 0.25 h

In: Value lookup for concentration at 0.25 h; key = C=C(C)[C@@H]1CCC(C)=C[C@H]1c1c(O)cc(CC2CN(C(C)=O)C2)cc1O [Example 2]
Out: 8.95 ng/mL

Taken from patent US10004722B2.
